Field: shrunken log2 fold change. Provide a value for each of the sequences that follow.
- Tested on: Escherichia coli TOP10
- METHOD_DESCRIPTION: shrunken log2 fold change of peptide-encoding DNA abundance (4.5 h post-induction vs induction); higher = less antimicrobial activity (less host growth inhibition)
- CONDITION_NOTES: time post-induction: 4.5 h; library: site-saturation at positions 5, 18, 19, 20

# get_value(readout= shrunken log2 fold change, system= Escherichia coli TOP10) for `RRIRTRPPRLPRPRPRPFIAPRP`
-0.589

# get_value(readout= shrunken log2 fold change, system= Escherichia coli TOP10) for `RRIRHRPPRLPRPRPRPQKVPRP`
-0.0567

# get_value(readout= shrunken log2 fold change, system= Escherichia coli TOP10) for `RRIRMRPPRLPRPRPRPGWIPRP`
-0.0121

# get_value(readout= shrunken log2 fold change, system= Escherichia coli TOP10) for `RRIRMRPPRLPRPRPRPQHAPRP`
0.0286

# get_value(readout= shrunken log2 fold change, system= Escherichia coli TOP10) for `RRIRIRPPRLPRPRPRPHDAPRP`
-0.175

# get_value(readout= shrunken log2 fold change, system= Escherichia coli TOP10) for `RRIRWRPPRLPRPRPRPISGPRP`
-0.12

# get_value(readout= shrunken log2 fold change, system= Escherichia coli TOP10) for `RRIRPRPPRLPRPRPRPEDEPRP`
0.242

# get_value(readout= shrunken log2 fold change, system= Escherichia coli TOP10) for `RRIRWRPPRLPRPRPRPTYTPRP`
-0.136

# get_value(readout= shrunken log2 fold change, system= Escherichia coli TOP10) for `RRIRVRPPRLPRPRPRPYCRPRP`
-0.213

# get_value(readout= shrunken log2 fold change, system= Escherichia coli TOP10) for `RRIRRRPPRLPRPRPRPMKEPRP`
0.135

# get_value(readout= shrunken log2 fold change, system= Escherichia coli TOP10) for `RRIRIRPPRLPRPRPRPVMRPRP`
0.144

# get_value(readout= shrunken log2 fold change, system= Escherichia coli TOP10) for `RRIRSRPPRLPRPRPRPMQRPRP`
0.281

# get_value(readout= shrunken log2 fold change, system= Escherichia coli TOP10) for `RRIRGRPPRLPRPRPRPCDHPRP`
0.135

# get_value(readout= shrunken log2 fold change, system= Escherichia coli TOP10) for `RRIRSRPPRLPRPRPRPRHWPRP`
0.618

# get_value(readout= shrunken log2 fold change, system= Escherichia coli TOP10) for `RRIRNRPPRLPRPRPRPDYHPRP`
0.00923

# get_value(readout= shrunken log2 fold change, system= Escherichia coli TOP10) for `RRIRVRPPRLPRPRPRPNTHPRP`
-0.457

# get_value(readout= shrunken log2 fold change, system= Escherichia coli TOP10) for `RRIRGRPPRLPRPRPRPVHIPRP`
-0.165

# get_value(readout= shrunken log2 fold change, system= Escherichia coli TOP10) for `RRIRPRPPRLPRPRPRPKARPRP`
0.691

# get_value(readout= shrunken log2 fold change, system= Escherichia coli TOP10) for `RRIRGRPPRLPRPRPRPVIWPRP`
0.886

# get_value(readout= shrunken log2 fold change, system= Escherichia coli TOP10) for `RRIRPRPPRLPRPRPRPMYQPRP`
-0.207

# get_value(readout= shrunken log2 fold change, system= Escherichia coli TOP10) for `RRIRERPPRLPRPRPRPRGMPRP`
0.0957

# get_value(readout= shrunken log2 fold change, system= Escherichia coli TOP10) for `RRIRYRPPRLPRPRPRPDKYPRP`
0.0363

# get_value(readout= shrunken log2 fold change, system= Escherichia coli TOP10) for `RRIRRRPPRLPRPRPRPKVNPRP`
0.468

# get_value(readout= shrunken log2 fold change, system= Escherichia coli TOP10) for `RRIRMRPPRLPRPRPRPYITPRP`
-0.393

# get_value(readout= shrunken log2 fold change, system= Escherichia coli TOP10) for `RRIRERPPRLPRPRPRPDKAPRP`
-0.0525

# get_value(readout= shrunken log2 fold change, system= Escherichia coli TOP10) for `RRIRIRPPRLPRPRPRPMSTPRP`
-0.211

# get_value(readout= shrunken log2 fold change, system= Escherichia coli TOP10) for `RRIRMRPPRLPRPRPRPCPGPRP`
-0.000588

# get_value(readout= shrunken log2 fold change, system= Escherichia coli TOP10) for `RRIRLRPPRLPRPRPRPFMYPRP`
-1.5

# get_value(readout= shrunken log2 fold change, system= Escherichia coli TOP10) for `RRIRFRPPRLPRPRPRPYISPRP`
-0.295

# get_value(readout= shrunken log2 fold change, system= Escherichia coli TOP10) for `RRIRVRPPRLPRPRPRPTRKPRP`
0.575

# get_value(readout= shrunken log2 fold change, system= Escherichia coli TOP10) for `RRIRVRPPRLPRPRPRPLVGPRP`
0.726

# get_value(readout= shrunken log2 fold change, system= Escherichia coli TOP10) for `RRIRRRPPRLPRPRPRPLNHPRP`;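 also: peptides expressed intracellularly from a pBAD plasmid library in pooled LB shake-flask culture, induced with 0.3% L-arabinose, DNA abundance read by NGS, three biological replicates, DESeq2 with apeglm shrinkage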
-0.0852
